Experiment: in vivo chemotherapy of SC transplanted tumor
Set-up: species or system mice
Details: mouse, in vivo; C38; IV; days: Glaucarubinone 3,5-10, Holacanthone 3-12, Glaucarubolone 3-6, Chaparrinone 3-9; read-out: MTD Total Dose
Endpoint name: MTD

- Compound: "CC1=CC(=O)C(O)C2(C)C1CC1OC(=O)C(O)C3C(C)C(O)C4(O)OCC13C42 (stereo not shown) [Glaucarubolone, glaucarubolone]"
  Test value: "151 mg/kg"

* * *

Molecular target: NADH oxidase
Assay: NADH oxidase activity of soybean hypocotyl plasma membrane vesicles
Format: biochemical
Conditions: Isolated PM vesicles; read-out: ED50, Inhibition of NADH oxidase

- Smiles: "CC[C@@H](C)C(=O)O[C@H]1C(=O)O[C@@H]2C[C@H]3C(C)=CC(=O)[C@@H](O)[C@]3(C)[C@H]3[C@@H](O)[C@H](O)[C@]4(C)OC[C@]32[C@@H]14"
  EC50 / nM: 400

* * *

System: NADH oxidase
Experiment: NADH oxidase activity of rat liver cell fractions
Conditions: read-out: ED50, inhibition of NADH oxidase activity; Rat liver plasma membrane
pEC50: −log10 of the molar value.
Endpoint name: pEC50

- Compound: "CC1=CC(=O)C(O)C2(C)C1CC1OC(=O)C(O)C3C(C)C(O)C4(O)OCC13C42 (stereo not shown) [Glaucarubolone, glaucarubolone]"
  Endpoint name: "pEC50"
  Test value: "< 5.00"

* * *

Test system: NADH oxidase
Assay: NADH oxidase activity of rat liver cell fractions
Settings: read-out: ED50, inhibition of NADH oxidase activity; Rat liver microsomes

- Compound: "CC1=CC(=O)C(O)C2(C)C1CC1OC(=O)C(O)C3C(C)C(O)C4(O)OCC13C42 (stereo not shown)"
  EC50: "> 10 µM"
